Reference for the values: the METLIN SMRT retention time set (Domingo-Almenara et al. 2019)

experiment-description: gradient 5% acetonitrile 3 min, to 50% in 2 min, to 85% in 15 min, held 3 min, 100 µL/min
run-conditions: column: Zorbax Extend-C18 2.1 x 50 mm; eluents: water / acetonitrile, 0.1% formic acid
Use True when the recorded RP-LC retention time is no lower than 700 s; use False when it is lower.

Given the entry O=C(CCc1c(-c2ccc(F)cc2)nc2ccccn12)NCc1ccc2c(c1)OCO2 , answer whether its RP-LC retention time meets or surpasses 700 s.
False

Is reported RP-LC retention time greater than or equal to 700 s here: COc1ccc(OC)c(NC(=O)C2c3cc(OC)c(OC)cc3C(=O)N(C)C2c2cccnc2)c1 (centres undefined)
False

API: above_or_equal(metric=RP-LC retention time, cutoff=700 s) for item CCOc1ccc(N2CCCCn3c2nc2c3c(=O)n(CCC(C)C)c(=O)n2C)cc1
True

Identify whether the reported RP-LC retention time of the following compound is 700 s or greater: O=C(Cn1ccc2ccccc21)Nc1ccc2cn[nH]c2c1
True

Is reported RP-LC retention time greater than or equal to 700 s here: CC1CCN(c2nn(CC(=O)NC3CCc4ccccc43)c(=O)c3ccccc23)CC1 (centres undefined)
True

Reported RP-LC retention time at or above 700 s? CCc1noc(NC(C)=O)c1-c1ccc(C)c(S(=O)(=O)Nc2cc(Cl)c(OC)cc2OC)c1
True

Dear colleague, could you confirm whether Cc1ccccc1Nc1c(-c2ccccc2)nc2cccc(C)n12 has RP-LC retention time at or above 700 s?
True

Say whether Cn1cc(CN2CCN(C(=O)c3cc(-c4cccs4)[nH]n3)CC2)c2ccccc21 shows RP-LC retention time of 700 s or more.
False

Could you verify whether the entry CCc1nc2cc3c(cc2n1CC(=O)Nc1ccc(C)cc1)OCCO3 shows RP-LC retention time of no less than 700 s?
False

Given O=C(NC1CCCC1)c1cn(Cc2ccccc2)cc2c(=O)n(-c3ccccc3)nc1-2 , state whether its RP-LC retention time is at least 700 s.
True

Is reported RP-LC retention time greater than or equal to 700 s here: COc1ccc(NS(=O)(=O)c2c(C)nn(-c3ccc(-c4ccccc4)nn3)c2C)cc1OC
True

Has O=C(c1c(-c2ccccc2)nnc2ccccc12)N1CCN(c2ccccn2)CC1 a recorded RP-LC retention time greater than or equal to 700 s?
False

Kindly determine if RP-LC retention time recorded for CCC(CC)C(=O)NCCc1nc2cccnc2n1-c1ccccc1 is above or exactly 700 s.
True

Tell me whether RP-LC retention time is at least 700 s here: CCOc1ccc(N2CC(c3nc(-c4ccc(Cl)cc4)no3)CC2=O)cc1 (centres undefined)
True

Is reported RP-LC retention time greater than or equal to 700 s here: O=C(NCc1ccccc1Cl)C1CC(=O)N(CCc2c[nH]c3ccc(F)cc23)C1 (centres undefined)
True

Quick check, RP-LC retention time >= 700 s? CC1CCN(S(=O)(=O)c2ccc(-c3nnc(C(=O)NC(C)C)o3)cc2)CC1
True

Would you say Cc1cc(C)cc(-n2ncc3c(N4CCC(C(N)=O)CC4)ncnc32)c1 shows RP-LC retention time at minimum 700 s?
True

###

experiment-description: gradient 5% acetonitrile 3 min, to 50% in 2 min, to 85% in 15 min, held 3 min, 100 µL/min
run-conditions: column: Zorbax Extend-C18 2.1 x 50 mm; eluents: water / acetonitrile, 0.1% formic acid
experimental-endpoint: RP-LC retention time (s)
The reply should be a number in s, with the unit left off.

Please report the measured RP-LC retention time for Fc1ccc(Nc2ncnc3nc[nH]c23)cc1
582

Quote RP-LC retention time reported for CCOc1ccccc1NC(=O)N1C[C@@H]2CN(S(=O)(=O)c3ccc(C)cc3)C[C@H](C1)O2 please.
915

For the compound CCn1cc(C)c(C(=O)O)c1CC(=O)N1CCC(N2CCCCC2)CC1 , give its reported RP-LC retention time.
587

Please look at this compound and report its RP-LC retention time: Cc1ccccc1NC(=O)C1CCCN(S(=O)(=O)c2cc(-c3noc(C4CCC4)n3)cs2)C1 (stereo not given)
1130

Retrieve RP-LC retention time measured for c1cc(-c2nc(-c3ccc4nncn4c3)no2)co1 and print it.
679

# return recorded RP-LC retention time for input Cc1nnc(N2CCCC(C(=O)NCc3cccnc3)C2)c2nn(-c3ccccc3)c(C)c12 (stereo not given)
579

Give a short answer stating reported RP-LC retention time for CCNC(=O)c1nc2cccnc2n(C)c1=O .
615

Identify the reported RP-LC retention time for the following entry. CC(=O)Nc1cc(C(=O)NCc2nn(Cc3ccccc3)c3ccccc23)ccc1C
794

Give the reported value of RP-LC retention time for this record: Cc1ccccc1S(=O)(=O)N1CCC2(CC1)NCCN=C2NCc1cccc(F)c1
712

Name the recorded RP-LC retention time of the item COC(=O)C1=CN(c2cccc(Br)c2)c2ccc(F)cc2S1(=O)=O in your answer.
913

Report RP-LC retention time for Cc1nn2c(CNS(=O)(=O)c3ccc4c(c3)CCC4)c(-c3ccccc3)nc2s1
936

Specify measured RP-LC retention time for CCOc1nc2ccccc2nc1N1CCCC(C(=O)Nc2ccc(Cl)cc2)C1 (stereo not given) .
1300

Read the entry COc1ccccc1-c1nc(C2CCN(C(=O)c3cccc4[nH]ccc34)CC2)no1 and write its reported RP-LC retention time.
652

Determine from records and report RP-LC retention time for COC(=O)CCc1sc(Nc2c(C)n[nH]c2C)nc1-c1ccc(OC)cc1
664

Please look at this compound and report its RP-LC retention time: O=C(Nc1nccs1)C1CCCN(S(=O)(=O)c2cc(-c3noc(C4CCCC4)n3)cs2)C1 (stereo not given)
1060

Give RP-LC retention time for CSc1ccc(CNC(=O)c2[nH]c3cc(C)sc3c2CN2CCOCC2)cc1
709

Answer with the recorded RP-LC retention time of COc1ccc(-c2cn3c(CC(=O)Nc4ccc(C(F)(F)F)cc4)csc3n2)cc1OC only.
846

Identify RP-LC retention time associated with the compound CC1(C)Cc2cccc(OCC(=O)NCc3n[nH]c(=O)c4ccccc34)c2O1
661

Supply measured RP-LC retention time of COC(=O)c1c(C)[nH]c(C(=O)N2CCC(CC(=O)NCc3cccc(C)c3)CC2)c1C in your reply.
748

Return the recorded RP-LC retention time value; entry: COc1ncc(C(=O)NCc2ccc(Br)cc2)cn1
773
